Target: W93A-NDM-1 (Klebsiella pneumoniae, UniProt C7C422, W93A)
Sequence (C7C422 29-270 W93A): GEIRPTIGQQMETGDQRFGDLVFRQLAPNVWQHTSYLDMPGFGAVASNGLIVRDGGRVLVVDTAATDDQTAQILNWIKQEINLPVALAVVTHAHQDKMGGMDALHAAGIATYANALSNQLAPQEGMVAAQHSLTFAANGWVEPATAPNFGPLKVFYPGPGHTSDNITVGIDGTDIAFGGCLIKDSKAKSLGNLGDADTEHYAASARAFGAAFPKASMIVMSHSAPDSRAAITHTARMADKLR
Assay: fluorescence-quenching assay, W93A
Protocol: Furthermore, this competitive inhibition mechanism was verified by fluorescence quenching method. In previous literature, fluorescence quenching method are extensively used in the interaction mechanism research between ligand and protein. The binding constants of NDM-1 with ZINC05683641 were measured by fluorescence quenching method in this research. […] Fluorescence-quenching assay […]
ASSAY ENDPOINT: Kd (µM)
Write the value in µM as a bare number.

Q: Given the compound COc1ccc2c3c(cccc13)C(=O)N(OS(=O)(=O)c1ccc(C)cc1)C2=O [ZINC05683641] , what is its reported Kd?
A: 3.28
